- Tested on: HCT-15
- assay_comment: NCI tumour cell line growth inhibition, 48 h
GI50 reference

# molecule, GI50
measured = [
    ("COc1cc(S(=O)(=O)Nc2ccc(-c3csc(N4C(=O)CSC4c4cccs4)n3)cc2)ccc1Cl (configuration not stated)", "32.6 µM"),
    ("O=C1CC2(CCC(O)(c3ccc(Cl)cc3)C(C(=O)c3ccc(Cl)cc3)C2)C(=O)c2ccccc2N1 (configuration not stated)", "> 42.7 µM"),
    ("Cc1ccc(/N=N/N(C)C(C)C(O)Cc2ccccc2)cc1 (configuration not stated)", "41 µM"),
    ("O=C1C2C3C=C4c5ccccc5N(c5ccccc5)C4(C2C(=O)N1c1ccccc1)C1C(=O)N(c2ccccc2)C(=O)C31 (configuration not stated)", "> 100 µM"),
    ("COC(=O)/C=C\\S/C(=C(/c1ccccc1)n1ccc(C(=O)OC)n1)c1ccccc1", "> 100 µM"),
    ("C=CCC1=CC2(OC)C(=O)C(OC)(OC)C1C1C(OC)(OC)C(=O)C(OC)=CC12CC=C (configuration not stated)", "> 100 µM"),
    ("Cc1ccnc(NC(=S)Nc2cccc(Cl)c2)c1", "> 100 µM"),
]

###

- Test system: HCT-116
- assay_comment: NCI tumour cell line growth inhibition, 48 h
Calls of active or inactive are those of the source. No stated cut-off is given here; in the data, active = GI50 up to about 1.1 µM and inactive = higher.
GI50 reference
quantity_name: GI50

# compound, experimental_value
measured = [
    ("CC(NC(=O)c1ccccc1)C(=O)N(Cc1ccccc1)Cc1ccccc1 (stereo unspecified)", "25.2 µM (inactive)"),
    ("CC(C)(C)c1ccc(-c2nnc(SCc3ccc(Cl)cc3)n2-c2cccc(C(F)(F)F)c2)cc1", "4.71 µM (inactive)"),
    ("NCCCCNOCCCN", "> 100 µM (inactive)"),
    ("COC(=O)/C=C\\S/C(=C(/c1ccccc1)n1ccc(C(=O)OC)n1)c1ccccc1", "20.5 µM (inactive)"),
    ("CCCCOc1ccc2c(c1)CC[C@@H]1[C@@H]2CC[C@]2(C)C(=O)N(CCCC)C(=O)C[C@@H]12", "> 100 µM (inactive)"),
    ("NNC(=S)N/N=C/C(Cl)=C(\\Cl)C(=O)O", "> 100 µM (inactive)"),
]

###

- System: EKVX
- assay_comment: NCI tumour cell line growth inhibition, 48 h
Activity calls are given as the source filed them. No stated cut-off is given here; in the data, active = GI50 up to about 1.1 µM and inactive = higher.

# substance_smiles, GI50
data = [
    ("Cc1cc2[nH]c3c(C#N)c(-c4ccccc4)c(/N=N/c4cccc(C(F)(F)F)c4)c(=O)n3c2cc1C", "23.4 µM (inactive)"),
    ("O=C(N/N=C/C=C/c1ccc([N+](=O)[O-])o1)c1ccc(C(=O)N/N=C/C=C/c2ccc([N+](=O)[O-])o2)cc1", "> 100 µM (inactive)"),
    ("O=c1c2cc([N+](=O)[O-])ccc2[nH]n1Cc1ccccn1", "> 100 µM (inactive)"),
    ("COc1ccc(NCc2cc(OC)cc(OC)c2)cc1", "78.5 µM (inactive)"),
    ("Cc1ccc(S(=O)(=O)/N=C(\\NN)Nc2ccc(Cl)cc2)cc1", "> 100 µM (inactive)"),
]

###

- Tested on: M14
- assay_comment: NCI tumour cell line growth inhibition, 48 h
Calls of active or inactive are those of the source. Cut-off read from the data, not from the text of the source: active = GI50 up to about 1.1 µM and inactive = higher.
Possible outcomes: YES for active, NO for inactive

# molecule, assigned_label
data = [
    ("CO/N=C(/C)c1cccc(Nc2nc3ccccc3c3[nH]c4ccccc4c23)c1", "NO"),
    ("CN(C)c1ccc(C2C(Cl)C(=O)N2NC(=O)c2c(Cl)c(Cl)c(Cl)c(Cl)c2-c2nc3ccccc3[nH]2)cc1 (centres undefined)", "NO"),
    ("CCCCC(/C=N/NC(=N)N)CC.Cc1cc(O)c(C(C)C)cc1S(=O)(=O)O", "NO"),
    ("O=C1NCN(c2ccccc2)C12CCN(CCCN1CCN(CCOC(c3ccccc3)c3ccccc3)CC1)CC2", "YES"),
    ("COC1C(O)=C2C(=O)OC(C)(O)/C=C/C=C\\C=C/C=C/C(c3ccccc3)NC(=O)/C=C/C=C/C=C/C=C/C2(C)C1O (centres undefined)", "YES"),
    ("CCOC(=O)C1=C(C)NC(=S)NC1c1cccc(O)c1 (centres undefined)", "NO"),
    ("C1CCN(c2nc(=[N+]3CCCCC3)ss2)CC1", "NO"),
    ("O=[N+]([O-])c1cc2c(cc1/C=N/n1c(CO)nc3ccccc31)OCO2", "NO"),
    ("COc1ccc2cc(CNCCOCCOCCNCc3ccc4cc(OC)ccc4c3)ccc2c1", "YES"),
]

###

- Test system: HCT-116
- assay_comment: NCI tumour cell line growth inhibition, 48 h
Calls of active or inactive are those of the source. Cut-off read from the data, not from the text of the source: active = GI50 up to about 1.1 µM and inactive = higher.
Possible outcomes: active, inactive

# compound, assigned_label
rows = [
    ("O=C1CC2(CCC(O)(c3ccc(Cl)cc3)C(C(=O)c3ccc(Cl)cc3)C2)C(=O)c2ccccc2N1 (stereo unspecified)", "inactive"),
    ("CCCCCCC(C)CCCCCCCCCCC(=O)O (stereo unspecified)", "inactive"),
    ("C[C@H](CCC1=NCCN1)[C@H]1CC[C@H]2[C@@H]3CC[C@@H]4C[C@H](O)CC[C@]4(C)[C@H]3C[C@H](O)[C@]12C", "inactive"),
    ("Cc1nc2c(C)c3c([nH]c4ccc(Cl)cc43)c(C)c2c(O)c1C", "inactive"),
    ("CC(=O)N[C@H]1CCCC[C@@H]1OC(C)=O", "inactive"),
    ("COc1ccc2c(c1OC)C(C=C(c1ccccc1)c1ccccc1)CN(C)C2 (stereo unspecified)", "inactive"),
    ("CCN1C(=O)N(C)C(O)c2c1nc1ccccn1c2=O (stereo unspecified)", "inactive"),
    ("CCOP(=O)(OCC)C(C)(CC)NC (stereo unspecified)", "inactive"),
    ("Cn1c2ccc(F)cc2c2ccc3c(c21)C(=O)C=CC3=O", "inactive"),
    ("C=C1CC(Cn2ccc(=O)[nH]c2=O)(c2ccc(-c3ccccc3)cc2)OC1=O (stereo unspecified)", "active"),
    ("CC/C(Cl)=N\\OC(=O)Nc1ccc(OC)cc1", "inactive"),
]

###

GI50 reference
- Tested on: SK-OV-3
- assay_comment: NCI tumour cell line growth inhibition, 48 h
Calls of active or inactive are those of the source. Rule as the data show it: active = GI50 up to about 1.1 µM and inactive = higher.
quantity_name: GI50

# compound, quantity_name, experimental_value
rows = [
    ("CS(=O)(=O)OC1CCC2(C#N)CCC1C2=O (stereo not given)", "GI50", "> 100 µM (inactive)"),
    ("Oc1cc(-c2ccccc2Cl)nc2cc3c(cc12)OCO3", "GI50", "0.17 µM (active)"),
    ("c1ccc2c(c1)[nH]c1c3ccccc3sc21", "GI50", "> 100 µM (inactive)"),
    ("Cc1ccc(/C=C/C(=O)c2ccc(Cl)c(Cl)c2)cc1", "GI50", "> 10 µM (inactive)"),
    ("NCCSc1nc(-c2ccccc2)c(-c2ccccc2)o1", "GI50", "73.3 µM (inactive)"),
    ("CN(C)CCCN1C(=S)N(CCCN(C)C)c2c3cc(O)ccc3nc3c([N+](=O)[O-])ccc1c23", "GI50", "4.11 µM (inactive)"),
    ("O=[N+]([O-])c1ccc(S(=O)(=O)N=Ic2ccccc2)cc1", "GI50", "> 100 µM (inactive)"),
    ("CC(C)c1cccc(C(C)C)c1NC(=O)C(=O)C(C(=O)c1ccc2ccccc2c1)C1OC(=O)c2ccccc21 (stereo not given)", "GI50", "> 100 µM (inactive)"),
    ("CC(=O)c1ccccc1NCC(=O)Nn1cnc2ccc(S(=O)(=O)Nc3ccccc3C(C)=O)cc2c1=O", "GI50", "> 100 µM (inactive)"),
    ("COc1ccc2cc(CNCCOCCOCCNCc3ccc4cc(OC)ccc4c3)ccc2c1", "GI50", "1.79 µM (inactive)"),
    ("CN(C)c1ccc(/C=C(\\NC(=O)c2ccccc2)c2nc3ccccc3c(=O)o2)cc1", "GI50", "> 100 µM (inactive)"),
    ("C/C(=N\\NC(=S)N1CCC(C2CCN(C(=S)N/N=C(\\C)c3ccccn3)CC2)CC1)c1ccccn1", "GI50", "38.4 µM (inactive)"),
    ("Cc1ccc(Nc2nc(=O)c3c4ccccc4n(C(=O)OC(C)(C)C)c3s2)cc1", "GI50", "> 100 µM (inactive)"),
    ("CCOC(=O)c1csc(NC(=O)CN2CCCCC2)n1", "GI50", "> 100 µM (inactive)"),
    ("COC(=O)/C=C\\S/C(=C(/c1ccccc1)n1ccc(C(=O)OC)n1)c1ccccc1", "GI50", "19.9 µM (inactive)"),
    ("O=S1(=O)C[C@H](NCc2ccccc2)[C@H](NCc2ccccc2)C1", "GI50", "> 100 µM (inactive)"),
    ("CCN(CC)/C(Sc1ccccc1)=C(\\C(Cl)=C(Cl)Cl)[N+](=O)[O-]", "GI50", "33.4 µM (inactive)"),
    ("CC(=O)OCC(=O)[C@@]12OC(C)(C)O[C@@H]1C[C@H]1[C@@H]3CC(C=O)=C4C=C(OCCCl)CC[C@]4(C)[C@@]3(F)[C@@H](O)C[C@@]12C", "GI50", "1.39 µM (inactive)"),
    ("CN(C)CCS/C(=N\\c1ccccc1)N1CCCCC1", "GI50", "75.7 µM (inactive)"),
    ("CC(=O)Oc1cc(-c2oc3cc(OC(C)=O)c(C4OC(CO)C(O)C(O)C4O)c(OC(C)=O)c3c(=O)c2O)c(OC(C)=O)cc1O (stereo not given)", "GI50", "> 100 µM (inactive)"),
    ("C=C=C(C)[Si](C)(C)C", "GI50", "> 100 µM (inactive)"),
    ("CCc1ccccc1NC(=O)C(=O)C(C#N)c1c(Cl)cccc1Cl (stereo not given)", "GI50", "> 100 µM (inactive)"),
    ("CC(=O)OCCOCn1c2ccccc2c2c3c(c4c5ccccc5n(COCCOC(C)=O)c4c21)C(=O)N(Cc1ccccc1)C3=O", "GI50", "> 100 µM (inactive)"),
    ("O=C(O)/C=N\\N=c1[nH]c2ccccc2[nH]1", "GI50", "> 100 µM (inactive)"),
    ("CC1(C)C(=O)CCC(=O)C(C)(C)C2=CC=C(O2)C(C)(C)C(=O)CCC(=O)C(C)(C)C2=CC=C1O2", "GI50", "> 100 µM (inactive)"),
    ("Cc1ccnc(NC(=S)Nc2cccc(Cl)c2)c1", "GI50", "> 100 µM (inactive)"),
    ("O=C1C2C3C=C4c5ccccc5N(c5ccccc5)C4(C2C(=O)N1c1ccccc1)C1C(=O)N(c2ccccc2)C(=O)C31 (stereo not given)", "GI50", "> 10 µM (inactive)"),
    ("COc1cccc(C[C@H]2COC(=O)[C@]2(O)Cc2cccc(OC)c2)c1", "GI50", "> 100 µM (inactive)"),
    ("O=C(O)C1=C(O)C(C(=O)O)C23CCCCCCCCCCC12C(C(=O)O)C(O)=C3C(=O)O (stereo not given)", "GI50", "> 100 µM (inactive)"),
    ("N#CC1=C(N)N(/N=C/c2ccco2)C(c2ccco2)C1(C#N)C#N (stereo not given)", "GI50", "33.7 µM (inactive)"),
    ("C/C(=N\\NC(=S)N1CCN(c2ccccn2)CC1)c1nccs1", "GI50", "1.61 µM (inactive)"),
    ("C=CCOC(=O)Cn1cnc2c(N)ncnc21", "GI50", "> 100 µM (inactive)"),
    ("O=c1c2ccccc2nc(N/N=C/c2ccc([N+](=O)[O-])cc2)n1-c1ccccc1", "GI50", "18.7 µM (inactive)"),
    ("COC(C)(C)[C@@H]1CCCN1C1=C(C)C(=O)OC1", "GI50", "> 100 µM (inactive)"),
    ("Cc1cn(CCOCCOC(=O)NC(CCCNC(N)=O)C(=O)O)c(=O)[nH]c1=O (stereo not given)", "GI50", "> 100 µM (inactive)"),
]
